result.type: melting point (°C)
Answers are plain numbers, in °C.

Some solved cases for reference:
In [3]: df
Out[3]:
                                   molecule    result_type  result_value
0  CC1(C(=O)O)CCC2(C)CCC3(C)C(=CC(=O)C4C5(C)CCC(OC(=O)CCC(=O)O)C(C)(C)C5CCC43C)C2C1 (stereo unspecified)  melting point           292
1                             CCCCCCC1CCCC1  melting point           -73
2  CC(C)(Oc1ccc(CCNC(=O)c2ccc(Cl)cc2)cc1)C(=O)O  melting point           186
3                          Brc1ccc2cccnc2c1  melting point            34
4                              Oc1ccnc(O)c1  melting point           278
5                      O=C(O)c1cccnc1C(=O)O  melting point           228
6                                 CCCCCOC=O  melting point         -73.5
7  Cc1ccc(C(C)CCC(=O)O)cc1 (stereo unspecified)  melting point            42

Working through the 2 molecules below one at a time, give melting point for each.
1. CCCCCNc1cc(=O)oc2ccccc12
2. CN(C)c1ccc(NC(N)=S)cc1

Response:
[163, 190]

Answer for every listed entry: what is its melting point? The entries follow.
1. Cc1cc(Br)cc(C)c1O
2. CC(=O)OC1CC2(C)C(CC(O)C3C4(C)CCC(O)C(C)C4CCC32C)C1=C(CCC=C(C)C)C(=O)O (stereo unspecified)
3. O=C(c1ccccc1)C1(O)CCCCC1

Response:
1. 76
2. 192
3. 48

###

Exercise: for every item that follows, state its recorded melting point.
One number for each entry, in °C.

                                   compound  result_value
0                     CC(C)(C(=O)O)C(F)(F)F            70
1  CCCC(C(N)=O)n1nc2ccccc2n1 (stereo not drawn)           126
2             NS(=O)(=O)c1ccc(Oc2ccccc2)cc1           131
3    Cc1cc(O)c2c(c1)C(=O)c1cc(O)cc(O)c1C2=O           257
4                     N=C(N)NC(=N)Nc1ccccc1           143
5  Nc1nc(=O)n(C2CSC(CO)O2)cc1F (stereo not drawn)           138
6                         FC(F)(F)Oc1ccccc1           -50
7    COc1ccc(OCC2CO2)cc1 (stereo not drawn)            47

Next compound, melting point to be filled in.
Prompt: Retrieve melting point measured for CCCCCCCCCCCCCC(=O)CC and print it.
Response: 43

###

Record form. Attribute: melting point. Fill in for each entry.

For the 3 compounds below, give their melting point values.
1. N#CC=Cc1ccco1
2. COc1cc(OC)c(C)c(OC)c1
3. CNC(C)=C(C(=O)OC)C(=O)c1cc(Cl)nc(Cl)c1

Response:
["38 °C", "28 °C", "112 to 115 °C"]

Please look at the items below and tell me melting point for each one, in order.
1. COC(=O)c1cccc(C)c1O
2. CC(O)CCc1ccc(CCC(C)O)cc1 (configuration not stated)
3. N#Cc1c(N)oc(-c2ccccc2)c1-c1ccccc1
4. NNc1ccc([N+](=O)[O-])cn1
5. OCc1ccccc1N1CCOCC1
6. CC(NC(=O)C(C)NC(=O)C(N)CCP(C)(=O)O)C(=O)O (configuration not stated)

Response:
1: 29 °C; 2: 42 to 46 °C; 3: 205 to 208 °C; 4: 206 °C; 5: 54 to 57 °C; 6: 160 °C

Please go through the list and note melting point for each compound.
1. O=P(c1ccccc1)(c1ccccc1)C1C=C(c2ccc(Br)cc2)OC(c2ccc(Br)cc2)=C1
2. Cc1c(N)cc([N+](=O)[O-])cc1C(N)=O
3. O=C(O)c1ccc(C(F)(F)F)c(F)c1

Response:
1. 193 to 194 °C
2. 199 °C
3. 175 °C

###

Please respond with reported melting point for every item in the list.
One number for each entry, in °C.

>>> print(df.to_string())
                            compound_string  result_value
0                         Clc1cccc(Cl)c1CBr            56
1  O=C1CCc2ccc(OCCCCN3CCN(c4cccc(Cl)c4Cl)CC3)cc2N1           139
2       CCCCCCCCCCNC(=O)C(C(F)(F)F)C(F)(F)F            66
3                   CC(C)(c1ccccc1)c1ccccc1            29

Prompt: Report melting point for Brc1cnc2ccccn12
Response: 93

###

Kindly supply the reported melting point values for the records listed here.

Recorded melting point, per entry:
>>> df
                                   molecule    result_type   result_value
0  COC(=O)C1=C(N)Oc2cc(C)n(CCc3ccccc3)c(=O)c2C1c1ccc(OC)cc1 (stereo unspecified)  melting point  211 to 213 °C
1                                 C1CCCCCC1  melting point          -8 °C
2     CNS(=O)(=O)Cc1ccc2[nH]cc(CCN(C)C)c2c1  melting point         169 °C
3  O=C1N[C@H]2[C@H](CS[C@H]2CCCCC(=O)ON2C(=O)CCC2=O)N1  melting point         212 °C
4   CN(C)c1ccc(C=C(C#N)c2ccc(Cl)c(Cl)c2)cc1  melting point  213 to 214 °C
5              CCCCCCCCCCCCCCCC(=O)c1ccccc1  melting point          59 °C

Give me melting point for each of these molecules, listed below.
1. Nc1ncnc2c1ncn2C1OC(CO)CC1O (stereo unspecified)
2. Cc1onc(-c2c(Cl)cccc2Cl)c1C(N)=O
3. NCCCO
4. O=[N+]([O-])c1cccc(-c2nnc3n2CN(c2cccc([N+](=O)[O-])c2)CS3)c1
5. O=C(O)c1ccc2c(c1)OC(F)(F)O2
6. O=C(O)COc1c(Cl)ccc(Cl)c1Cl
7. Cc1ccc(I)cc1
8. C[C@H](OC(=O)Nc1ccccc1)C(=O)O

Response:
["226 °C", "166 to 168 °C", "11 °C", "240 °C", "156 °C", "148 °C", "37.8 °C", "137 to 142 °C"]

###

Group membership follows melting point per the scheme L (below 40 °C), M (40 °C to below 100 °C), H (100 °C or more)

>>> df
         molecule  classification
0  CC(=O)OOC(C)=O               L

Prompt: Entry BrCCc1ccccc1 belongs to which category?
Response: L

Prompt: Exam item: assign Nc1ccc(Nc2ccccc2)cc1 to the correct category.
Response: M

Prompt: Hello team, could you let me know which band the following molecule falls into: Cc1cc(Cl)ccc1NC(=S)N(C)C
Response: H

Prompt: Which melting point category applies to COC(=O)C(C)(C)C1=CCC2(C)C(CCC3C4CCC(O)C4(C)CCC32)C1 (stereo not drawn) here?
Response: H

Prompt: Category lookup for the molecule OC1c2ccccc2C=Cc2ccccc21
Response: H

Prompt: Where would Cc1c(F)ccc(C#N)c1F land among the classes by reported melting point?
Response: M

Prompt: Which band does CC(C)(C)C(=O)Nc1ccc2nn(C3CCCC3)nc2c1 fall in?
Response: H

Prompt: Band assignment needed for Cc1cccc(N(C)C(=S)Oc2ccc3c(c2)C2CCC3C2)c1 (stereo not drawn) please.
Response: M

###

result.type: melting point (°C)
Answers are plain numbers, in °C.

Guide cases for melting point, answers given:
                                   compound  result_value
0           O=S(=O)(c1ccc(O)cc1)c1ccc(O)cc1           248
1  CC1=NN(c2ccc([N+](=O)[O-])cc2)C(=O)C1[N+](=O)[O-] (configuration not stated)           119

Please look at the items below and tell me melting point for each one, in order.
1. O=[N+]([O-])c1ccc(F)cc1Cl
2. O=S(=O)(Cl)c1ccc(N2CCOCC2)nc1
3. C=C1C(=O)C23C(OC(C)=O)CC4C5(C)CCCC4(C(=O)OC5)C2C(OC(C)=O)CC1C3OC(C)=O (configuration not stated)

Response:
1: 35; 2: 118; 3: 235

I'm hoping you can list melting point for every compound here, please.
1. COC(=O)C1(C(=O)OC)Cc2ccc(OC)cc2C(=O)O1
2. CC1=C(C#N)C(c2cccc([N+](=O)[O-])c2)C(C(=O)OC(C)(C)C)=C(C)N1 (configuration not stated)
3. CCOC(=O)c1nn(-c2ccc(C)cc2)c(C)c1C(=O)c1noc(-c2ccccc2)c1S(=O)(=O)c1ccccc1
4. c1ccc2cc3c4ccccc4c4ccccc4c3cc2c1
5. O=C(O)C1C(C(=O)O)C2(Cl)C(Cl)=C(Cl)C1(Cl)C2(Cl)Cl (configuration not stated)
6. c1ccc(Oc2nc(Oc3ccccc3)nc(Oc3ccccc3)n2)cc1

Response:
[142, 61, 169, 206, 209, 234]

Give me melting point for each of these compounds, listed below.
1. O=Nc1ccc(O)c2ncccc12
2. NC(C(=O)O)C(O)c1ccccc1 (racemic)
3. COc1ccc(C2Nn3c(nnc3-c3cccnc3)S2)cc1 (configuration not stated)
4. CC(C)Cn1cnc2c(N)nc3ccccc3c21
5. CCOC(=O)c1c(SC)nn(C(N)=S)c1N

Response:
[245, 186, 219, 293, 149]

Here are 4 compounds. What values of melting point were reported for them?
1. COc1ccc(-n2ncc(C(=O)Cl)c2C)cc1
2. Cc1c(Cl)c(C)c(Cl)c(Cl)c1Cl
3. CCNC1=NC(=O)C(c2ccccc2)O1 (configuration not stated)
4. CC(C)C(=O)Cl

Response:
[86, 223, 148, -90]

List reported melting point for each of these compounds:
1. CN(C)c1ccc(C2C3=C(CC(C)(C)CC3=O)Nc3c2ccc2ccccc32)cc1 (configuration not stated)
2. Cc1ccccc1/N=N/c1c(C)[nH]c(=S)c(C#N)c1C
3. COc1ccc2c(c1)N(CC(C)CN1CCC(O)CC1)c1ccccc1S2 (configuration not stated)

Response:
271
178
138

Below is a list of compounds. For each, state its recorded melting point.
1. CC1(C)CCC(C)(C)C1
2. CCCC(=O)c1ccccc1O
3. C=C(C)C(=O)C(=CC(=O)O)OC

Response:
[-88.4, 10, 83]
